experiment: Single dose intravenous PK study in male Sprague Dawley rats (plasma by LC-MS/MS); format: in vivo; conditions: male, Sprague Dawley, rat, plasma, iv, 2 mg/kg, PRX-002 (−) Isomer IV 2 mg/kg, mean; read-out: Vss of PRX-002 (−) Isomer
READOUT KIND: Vd
State the value, then name its unit.

Tell us which Vd value is on record for CCN[C@@H]1[C@@H]2CC[C@@H](C2)[C@H]1c1ccccc1 [PRX-002 (−) Isomer, reference compound]
15.7 L/kg

====

Experiment: Single dose intravenous PK study in male Sprague Dawley rats (plasma by LC-MS/MS)
Format: in vivo
Details: male, Sprague-Dawley, rat, plasma; PRX-P4-003 IV 2 mg/kg, mean; read-out: Tmax of PRX-P4-003
Protocol: We describe here PK results of prodrugs of PRX-002 (−) or (+) isomers. All doses of prodrugs were administered such that they were equivalent to 5 mg/kg of PRX-002 (−) or (+) for oral studies and 2 mg/kg PRX-002 (−) or (+) for intravenous studies in male Sprague-Dawley (MSD) rats. Higher doses of up to 10 or 15 mg/kg [again equivalent to PRX-002 (−)] were used in some studies (as specified)]. […] The plasma concentrations of fencamfamine were measured by LC-MS/MS over time. […]
READOUT KIND: Tmax (min)
Enter your answer as a number in min; do not include the unit.

Input CCCCCCCCCCCCCCCCCC(=O)OCOC(=O)N(CC)C1C2CCC(C2)C1c1ccccc1 (single isomer, unassigned) , output reported Tmax.
4.8
